Test system: MDA-MB-231 breast
Assay: NCI tumour cell line growth inhibition, 48 h
Overview of reported GI50 across a group of compounds:

What value of measured GI50 is listed for CC(C)=CC(=O)OC1C(CO)OC(Oc2cc(O)c3c(=O)cc(-c4ccc(O)c(O)c4)oc3c2)C(OC2OC(C)C(O)C(O)C2O)C1O (stereo unspecified) ?
> 100000 nM

What value of measured GI50 is listed for `O=C(N/N=C(\CN1CCN(c2cc3[nH]cc(C(=O)O)c(=O)c3cc2F)CC1)c1ccc(Cl)cc1)c1ccncc1` ?
20200 nM

----------
Tested on: NCI-H522 lung
Assay: NCI tumour cell line growth inhibition, 48 h; in the data active = GI50 below about 0.43 µM; inactive = the rest
The reply should name one outcome from active, inactive

Please review the following examples before continuing.
- smiles-input: "O=C(CCCCN1CCOCC1)Nc1ccc(Cn2nnc3c2C(=O)c2nnn(Cc4ccc(NC(=O)CCCCN5CCOCC5)cc4)c2C3=O)cc1"
  class-assignment: "active"
- smiles-input: "Nn1c2c(c3ccccc3c1=O)C(=O)c1ccccc1-2"
  class-assignment: "inactive"

// next entry
Per the assay record, what outcome was assigned to `O=CN/N=C/c1ccc(Cl)c([N+](=O)[O-])c1` ?
inactive
